Test: Cytotoxicity against human HepG2 cells incubated for 40 hrs by celltiter-glo luminescent cell viability assay
Type: toxicity, cell-based
reported-metric: IC50 at 40 h

>>> reported("CC[C@H](C)[C@@H](NC(=O)[C@@H](NC(=O)[C@H](CCC(=O)O)NC(=O)[C@H](Cc1ccccc1)NC(=O)[C@@H](CN)NC(=O)[C@H](CCN)NC(=O)[C@H](CO)NC(=O)[C@@H](Cc1c[nH]c2ccccc12)NC(=O)[C@@H](CO)NC(=O)CNC(=O)[C@@H](CCN)NC(=O)[C@H](N)C(C)C)C(C)C)C(=O)N[C@@H](C)C(=O)O")
"> 170 mg/L"
>>> reported("CC[C@H](C)[C@@H](NC(=O)[C@@H](NC(=O)[C@H](CCC(=O)O)NC(=O)[C@H](Cc1ccccc1)NC(=O)[C@@H](CCN)NC(=O)[C@H](CCN)NC(=O)[C@H](CO)NC(=O)[C@@H](Cc1c[nH]c2ccccc12)NC(=O)[C@@H](CO)NC(=O)CNC(=O)[C@@H](CN)NC(=O)[C@H](NC(=O)[C@H](C)N)C(C)C)C(C)C)C(=O)N[C@@H](C)C(=O)O")
"> 170 mg/L"
>>> reported("CC[C@H](C)[C@@H](NC(=O)[C@@H](NC(=O)[C@H](CCC(=O)O)NC(=O)[C@H](Cc1ccccc1)NC(=O)[C@@H](CCN)NC(=O)[C@H](CCN)NC(=O)[C@H](CO)NC(=O)[C@@H](Cc1c[nH]c2ccccc12)NC(=O)[C@@H](CO)NC(=O)CNC(=O)[C@@H](CCN)NC(=O)[C@H](NC(=O)[C@H](C)N)C(C)C)C(C)C)C(=O)N[C@@H](C)C(N)=O")
"> 170 mg/L"
>>> reported("CC[C@@H](C)[C@@H](NC(=O)[C@@H](NC(=O)[C@H](CCC(=O)O)NC(=O)[C@H](Cc1ccccc1)NC(=O)[C@@H](CCN)NC(=O)[C@H](CCN)NC(=O)[C@H](CO)NC(=O)[C@@H](Cc1c[nH]c2ccccc12)NC(=O)[C@@H](CO)NC(=O)CNC(=O)[C@@H](CCN)NC(=O)[C@H](N)C(C)C)C(C)C)C(=O)N[C@@H](C)C(=O)O")
"91 mg/L"
>>> reported("CC[C@H](C)[C@@H](NC(=O)[C@@H](NC(=O)[C@H](CCC(=O)O)NC(=O)[C@H](Cc1ccccc1)NC(=O)[C@@H](CCN)NC(=O)[C@H](CCN)NC(=O)[C@H](CO)NC(=O)[C@@H](Cc1c[nH]c2ccccc12)NC(=O)[C@@H](CO)NC(=O)CNC(=O)[C@@H](CCN)NC(=O)[C@H](NC(=O)[C@@H]1CCCN1)C(C)C)C(C)C)C(=O)N[C@@H](C)C(=O)O")
"109 mg/L"
>>> reported("CC[C@H](C)[C@@H](NC(=O)[C@@H](NC(=O)[C@H](CCC(=O)O)NC(=O)[C@H](Cc1ccccc1)NC(=O)[C@@H](CCN)NC(=O)[C@H](CCN)NC(=O)[C@H](CO)NC(=O)[C@@H](Cc1c[nH]c2ccccc12)NC(=O)[C@@H](CO)NC(=O)CNC(=O)[C@@H](CCN)NC(=O)[C@H](NC(=O)CCN)C(C)C)C(C)C)C(=O)N[C@@H](C)C(=O)O")
"> 170 mg/L"
